# system tested: EGFR (Homo sapiens, UniProt P00533, L858R/T790M)
# Sequence (P00533 696-1210 T790M/L858R limits assumed): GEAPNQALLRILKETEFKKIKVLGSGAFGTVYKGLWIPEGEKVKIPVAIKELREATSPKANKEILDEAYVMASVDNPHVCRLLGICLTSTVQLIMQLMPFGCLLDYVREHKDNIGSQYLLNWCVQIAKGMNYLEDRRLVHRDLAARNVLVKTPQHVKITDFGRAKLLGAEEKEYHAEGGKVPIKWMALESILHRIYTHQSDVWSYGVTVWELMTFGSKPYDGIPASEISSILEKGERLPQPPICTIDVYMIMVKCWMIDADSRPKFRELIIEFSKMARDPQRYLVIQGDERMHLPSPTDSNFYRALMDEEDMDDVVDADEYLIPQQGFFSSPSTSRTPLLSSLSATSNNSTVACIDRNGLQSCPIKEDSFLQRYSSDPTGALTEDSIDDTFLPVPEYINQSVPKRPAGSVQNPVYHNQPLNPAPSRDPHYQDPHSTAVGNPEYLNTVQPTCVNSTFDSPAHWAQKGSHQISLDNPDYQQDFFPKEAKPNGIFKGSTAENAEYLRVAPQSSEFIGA
# assay remarks: luminescence kinase assay (Kinase-Glo Max, BPS Bioscience EGFR (T790M/L858R) kit, […] ATP)
test readout: IC50
Express the reported value numerically, then name its unit.

Quick check: IC50 of O=C1c2ccc(-c3nc4ccccc4c(=O)o3)cc2C(=O)N1c1cccc(-c2nc3ccccc3c(=O)o2)c1 ? 37.2 nM
